Target: α4 nAChR (Sus scrofa, UniProt A0A286ZKF4+A0A287BFD8)
Sequence (A0A286ZKF4 31-595 limits assumed): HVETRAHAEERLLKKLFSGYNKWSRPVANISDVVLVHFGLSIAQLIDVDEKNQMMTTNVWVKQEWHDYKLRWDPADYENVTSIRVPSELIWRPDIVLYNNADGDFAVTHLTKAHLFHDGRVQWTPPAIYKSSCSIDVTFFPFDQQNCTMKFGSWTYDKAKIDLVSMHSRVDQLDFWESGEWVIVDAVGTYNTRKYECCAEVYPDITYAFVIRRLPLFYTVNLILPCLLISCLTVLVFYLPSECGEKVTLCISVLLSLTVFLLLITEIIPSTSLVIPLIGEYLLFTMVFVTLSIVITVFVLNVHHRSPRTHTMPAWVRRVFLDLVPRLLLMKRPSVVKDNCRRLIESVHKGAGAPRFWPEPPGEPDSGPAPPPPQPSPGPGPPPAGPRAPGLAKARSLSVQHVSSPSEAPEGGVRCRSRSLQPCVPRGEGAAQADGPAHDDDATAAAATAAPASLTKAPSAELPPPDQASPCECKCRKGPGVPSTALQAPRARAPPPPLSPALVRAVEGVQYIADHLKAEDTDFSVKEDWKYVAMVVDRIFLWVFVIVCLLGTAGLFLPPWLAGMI
Sequence (A0A287BFD8 26-502 limits assumed): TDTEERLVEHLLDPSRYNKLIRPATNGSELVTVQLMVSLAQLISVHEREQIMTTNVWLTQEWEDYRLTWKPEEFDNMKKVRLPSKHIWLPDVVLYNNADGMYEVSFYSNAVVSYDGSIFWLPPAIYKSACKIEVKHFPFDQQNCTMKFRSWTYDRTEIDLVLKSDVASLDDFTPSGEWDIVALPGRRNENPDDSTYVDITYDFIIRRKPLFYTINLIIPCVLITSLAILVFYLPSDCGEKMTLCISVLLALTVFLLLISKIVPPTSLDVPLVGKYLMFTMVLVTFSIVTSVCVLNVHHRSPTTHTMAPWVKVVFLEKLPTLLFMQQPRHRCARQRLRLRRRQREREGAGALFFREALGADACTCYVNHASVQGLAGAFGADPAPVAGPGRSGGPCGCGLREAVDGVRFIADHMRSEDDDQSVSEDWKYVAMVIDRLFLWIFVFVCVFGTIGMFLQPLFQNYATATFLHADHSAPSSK
Details: read-out: Mean Ki against [3H]-cytisine
Measured Attribute: Ki (nM)
Numbers only, in nM.

Clc1ccc(C2CC3CCC2N3)cn1 (centres unmarked) [epibatidine] | 0.1

For this compound ( `CN1CCC[C@H]1c1cccnc1` ), measured Ki is 20

====

Target: α7 nAChR (Sus scrofa)
Sequence (F1SNR6 20-499 limits assumed): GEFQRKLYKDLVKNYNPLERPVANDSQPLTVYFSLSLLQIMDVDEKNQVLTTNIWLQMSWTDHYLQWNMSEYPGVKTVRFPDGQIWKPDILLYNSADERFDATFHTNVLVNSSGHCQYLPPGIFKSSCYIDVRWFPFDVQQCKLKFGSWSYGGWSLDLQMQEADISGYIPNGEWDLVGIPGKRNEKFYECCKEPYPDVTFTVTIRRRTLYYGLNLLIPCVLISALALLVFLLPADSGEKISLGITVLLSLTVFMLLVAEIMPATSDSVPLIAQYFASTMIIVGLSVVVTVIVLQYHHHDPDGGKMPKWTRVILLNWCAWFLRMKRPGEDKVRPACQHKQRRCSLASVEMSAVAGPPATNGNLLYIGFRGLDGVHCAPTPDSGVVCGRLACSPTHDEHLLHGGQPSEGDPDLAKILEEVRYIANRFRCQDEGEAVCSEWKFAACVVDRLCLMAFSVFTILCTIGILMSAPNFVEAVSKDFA
Experiment: biochemical
Type: binding, porcine
Measured Attribute: pKi
Give bare numbers, as −log10 of the molar value.

For this compound ( `CN1CCC[C@H]1c1cccnc1` ), measured pKi is 3.52

====

Here we list molecules with their recorded Ki when tested on α3 nAChR (Sus scrofa).
Sequence (A0A287A7Z4 30-503 limits assumed): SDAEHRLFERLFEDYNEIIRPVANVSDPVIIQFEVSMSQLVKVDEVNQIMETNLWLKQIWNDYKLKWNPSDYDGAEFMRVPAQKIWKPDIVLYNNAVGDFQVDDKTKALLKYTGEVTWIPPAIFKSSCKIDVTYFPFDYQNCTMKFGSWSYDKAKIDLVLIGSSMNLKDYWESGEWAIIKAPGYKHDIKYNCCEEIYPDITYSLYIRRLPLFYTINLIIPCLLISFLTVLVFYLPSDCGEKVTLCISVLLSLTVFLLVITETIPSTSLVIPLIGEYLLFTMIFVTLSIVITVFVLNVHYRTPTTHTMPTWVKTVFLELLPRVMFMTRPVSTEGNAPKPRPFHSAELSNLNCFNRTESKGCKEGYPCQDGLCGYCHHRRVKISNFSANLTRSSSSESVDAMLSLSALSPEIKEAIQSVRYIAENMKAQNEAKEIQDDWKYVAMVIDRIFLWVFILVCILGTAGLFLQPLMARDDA
Give bare numbers, in nM.

Clc1ccc(C2CC3CCC2N3)cn1 (centres unmarked) [epibatidine] | 0.7

Here's the next entry for you.
Test item `CN1CCC[C@H]1c1cccnc1` ; α3 nAChR (Sus scrofa); reported Ki was 220
